Catalogue of binders with associated rec. Human PAPP-A IGFBP5 pIC50 (G-401 pAKT assay)
- tested-on: recombinant human PAPPA (pregnancy associated plasma protein-A) (human, UniProt Q13219 82-1627)
- Sequence (Q13219 82-1627 limits assumed): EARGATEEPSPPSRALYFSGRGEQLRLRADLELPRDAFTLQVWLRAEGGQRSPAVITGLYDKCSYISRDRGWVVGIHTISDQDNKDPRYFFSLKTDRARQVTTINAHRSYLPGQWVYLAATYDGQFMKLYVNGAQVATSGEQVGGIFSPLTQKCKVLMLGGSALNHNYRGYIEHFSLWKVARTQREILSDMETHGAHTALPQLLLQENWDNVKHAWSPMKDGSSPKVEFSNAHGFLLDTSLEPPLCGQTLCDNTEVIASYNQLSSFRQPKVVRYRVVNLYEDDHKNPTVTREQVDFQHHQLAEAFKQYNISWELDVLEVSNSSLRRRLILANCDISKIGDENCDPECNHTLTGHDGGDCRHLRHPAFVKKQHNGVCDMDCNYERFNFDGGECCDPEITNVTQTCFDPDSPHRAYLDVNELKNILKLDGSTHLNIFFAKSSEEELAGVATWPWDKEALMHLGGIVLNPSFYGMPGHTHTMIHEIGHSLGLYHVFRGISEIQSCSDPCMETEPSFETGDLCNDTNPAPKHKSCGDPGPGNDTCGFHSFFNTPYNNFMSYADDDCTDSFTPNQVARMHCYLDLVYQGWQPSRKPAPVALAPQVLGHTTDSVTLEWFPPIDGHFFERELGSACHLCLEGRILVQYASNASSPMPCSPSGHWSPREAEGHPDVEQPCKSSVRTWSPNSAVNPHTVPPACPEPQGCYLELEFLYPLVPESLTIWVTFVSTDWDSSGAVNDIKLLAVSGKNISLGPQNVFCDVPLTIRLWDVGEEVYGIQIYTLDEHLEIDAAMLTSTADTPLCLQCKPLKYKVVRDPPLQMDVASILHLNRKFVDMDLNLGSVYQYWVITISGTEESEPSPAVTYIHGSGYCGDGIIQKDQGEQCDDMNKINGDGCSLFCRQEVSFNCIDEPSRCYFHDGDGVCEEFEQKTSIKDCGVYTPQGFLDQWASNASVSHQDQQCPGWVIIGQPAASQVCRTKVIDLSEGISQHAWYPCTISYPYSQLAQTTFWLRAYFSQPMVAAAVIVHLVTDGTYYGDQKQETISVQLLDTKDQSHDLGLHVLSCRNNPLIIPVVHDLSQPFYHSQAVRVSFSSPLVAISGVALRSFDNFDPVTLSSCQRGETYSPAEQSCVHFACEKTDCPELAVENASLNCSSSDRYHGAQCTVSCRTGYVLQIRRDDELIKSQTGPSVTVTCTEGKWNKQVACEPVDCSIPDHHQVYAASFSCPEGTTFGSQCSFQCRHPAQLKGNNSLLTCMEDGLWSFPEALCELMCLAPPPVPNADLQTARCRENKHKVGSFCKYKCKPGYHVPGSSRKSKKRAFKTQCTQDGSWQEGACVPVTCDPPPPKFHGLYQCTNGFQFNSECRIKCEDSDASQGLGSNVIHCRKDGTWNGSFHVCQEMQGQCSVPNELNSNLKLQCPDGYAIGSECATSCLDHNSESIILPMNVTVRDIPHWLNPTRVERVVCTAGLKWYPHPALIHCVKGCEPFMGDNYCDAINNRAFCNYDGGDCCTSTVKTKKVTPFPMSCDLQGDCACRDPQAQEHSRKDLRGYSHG
- test-details: cell-based or functional assay
measurement-kind: rec. Human PAPP-A IGFBP5 pIC50 (G-401 pAKT assay)

binder	result
TPP-12744 (antibody, human IgG1, kappa, V domains shown, human IgG1/kappa, Fc-disabled (L235A, G237A)) VH: QVQLVQSGAEVKKPGASVKVSCKASGYTFTSYAMHWVRQAPGQRLEWMGWMNAGTGATKSSQKFQGRVTITRDTSASTAYMELSSLRSEDTAVYYCARGPSMETPTTFGMDVWGQGTTVTVSS VL: DIQMTQSPSSVSASVGDRVTITCRASQGISRWLAWYQQKPGKAPKLLIYAASSLQSGVPSRFSGSGSGTDFTLTISSLQPEDFATYYCQQENAYPFTFGGGTKVEIKR	9.81 pIC50
TPP-12683 (antibody, human IgG1, kappa, V domains shown) VH: QLQLQESGPGLVKPSETLSLTCTVSGGSISSSSYNWGWIRQPPGKGLEWIGSISSSGSTYFNPSLKSRVTISVDTSKNQFSLKLSSVTAADTAVYYCARSGYRPSFYAMDAWGQGTTVTVSS VL: DIQLTQSPSSVSASVGDRVTITCRASQDISYWLAWYQQKPGKAPKLLIYAASSLQSGVPSRFSGSGSGTDFTLTISSLQPEDFATYYCQQAYLLHTFGGGTKVEIKR	8.81 pIC50
TPP-12801 (antibody, human IgG1, kappa, V domains shown) VH: QLQLQESGPGLVKPSETLSLTCTVSGGSISSSDYYWGWIRQPPGKGLEWIGSIFYSGSTYYNPSLKSRVTISVDTSKNQFSLKLSSVTAADTAVYYCARATTSSSADYWGQGTLVTVSS VL: DIQMTQSPSSVSASVGDRVTITCRASQGVSRWLAWYQQKPGKAPKLLIYAASSLQSGVPSRFSGSGSGTDFTLTISSLQPEDFATYYCQQGNVPPLTFGGGTKVEIKR	9.05 pIC50

Measured values drawn from patent US20260226194A1 for this set.
